The reported measurements were obtained from patent US8552021B2.

Reported CC50 values follow for various compounds
Experiment: Cytotoxicity CC50 in Huh-7
Format: cell-based
Details: human; Huh-7 cells

COMPOUND	CC50
CCCOC(=O)C(C)NP(=O)(OC[C@@]1(N=[N+]=[N-])O[C@@H](n2ccc(=O)[nH]c2=O)[C@@H](C)[C@@H]1O)Oc1ccccc1 (stereo partly shown)	> 98.3 µM
CC(C)OC(=O)C(C)(C)NP(=O)(OC[C@@]1(N=[N+]=[N-])O[C@@H](n2ccc(=O)[nH]c2=O)[C@@H](C)[C@@H]1O)Oc1ccccc1 (stereo partly shown)	> 98.4 µM
CCC(NP(=O)(O)OC[C@@]1(N=[N+]=[N-])O[C@@H](n2ccc(=O)[nH]c2=O)[C@@H](C)[C@@H]1O)C(=O)OC (stereo partly shown)	> 98.4 µM
CCCCOC(=O)C(CC)NP(=O)(OC[C@@]1(N=[N+]=[N-])O[C@@H](n2ccc(=O)[nH]c2=O)[C@@H](C)[C@@H]1O)Oc1ccccc1 (stereo partly shown)	> 73.9 µM
